// data source = patent US6436921B1

Assay: Bioavailability test, subcutaneous injection to mice
Assay type: in vivo
Details: mouse, in vivo, sc, read-out: Tmax
Assay Readout: Tmax

Inquiry: Query: Tmax; subject: C[C@@H](O)[C@H]1C(=O)N2C(C(=O)O)=C(S[C@@H]3CN[C@H](C(=O)NCCS(N)(=O)=O)C3)[C@H](C)[C@H]12 [Compound 10]
Reply text: ≤ 19.8 min

###

Experiment: Bioavailability test, subcutaneous injection to mice
Type: in vivo
Conditions: mouse, in vivo, sc, read-out: Cmax
Assay Readout: Cmax (ng/mL)
Numbers only, in ng/mL.

Inquiry: Please give the measured Cmax for this compound: C[C@@H](O)[C@H]1C(=O)N2C(C(=O)O)=C(S[C@@H]3CN[C@H](C(=O)NCCS(N)(=O)=O)C3)[C@H](C)[C@H]12 [Compound 10]
Reply text: 16000

###

Target: UniProt:P16444
Sequence (P16444 17-385): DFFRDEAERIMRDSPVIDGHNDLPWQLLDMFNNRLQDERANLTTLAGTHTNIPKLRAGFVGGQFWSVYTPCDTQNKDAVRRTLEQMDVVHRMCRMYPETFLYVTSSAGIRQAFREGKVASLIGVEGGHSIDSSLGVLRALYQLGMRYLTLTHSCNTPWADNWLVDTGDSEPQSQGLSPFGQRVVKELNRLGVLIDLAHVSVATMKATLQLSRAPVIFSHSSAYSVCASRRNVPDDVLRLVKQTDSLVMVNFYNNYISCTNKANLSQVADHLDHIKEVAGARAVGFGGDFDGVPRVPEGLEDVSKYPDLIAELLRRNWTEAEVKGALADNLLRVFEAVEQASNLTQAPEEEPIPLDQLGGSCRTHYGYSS
Experiment: in vitro
Conditions: renal enzyme DHP-I
Assay Readout: half-life (min)
Numbers only, in min.

Inquiry: Item C[C@@H](O)[C@H]1C(=O)N2C(C(=O)O)=C(SCCN=CN)C[C@H]12 [imipenem, reference compound] with UniProt:P16444 - half-life?
Reply text: 30
